test: Total drug recovery in healthy human at 1500 mg, iv infusion for 1 hr as single dose after 336 hrs; assay type: ADME, organism-based; conditions: in vivo, read-out: Drug recovery
METRIC: dose excreted at 336 h (%)
Give the quantity in %, number only.

// dose excreted at 336 h value for Cl.N[14CH2][C@H]1OB(O)c2c(OCCCO)cccc21 : 98.2

----------
experiment: Volume of distribution at steady state in cynomolgus monkey at 35 mg/kg, iv administered as single infusion for 1 hr; format: ADME, organism-based, Macaca fascicularis; set-up: dose 35 mg/kg, route intravenous; conditions: in vivo, read-out: Vdss
METRIC: Vd (L/kg)
Your answer should be a plain number; it is taken to be in L/kg.

Sample Cl.NC[C@H]1OB(O)c2c(OCCCO)cccc21 ; Vd observed: 3.04

----------
experiment: Total drug recovery in healthy human at 1500 mg, iv infusion for 1 hr as single dose after 312 hrs; assay type: ADME, organism-based; settings: in vivo, read-out: Drug recovery
METRIC: dose excreted at 312 h (%)
Value expressed in %; do not type the unit.

The molecule listed as Cl.N[14CH2][C@H]1OB(O)c2c(OCCCO)cccc21 has a reported dose excreted at 312 h of 97.8

----------
test: Drug recovery in healthy human feces at 1500 mg, iv infusion for 1 hr as single dose after 120 hrs; type: ADME, organism-based; settings: read-out: Drug recovery
METRIC: dose excreted at 120 h (%)
Write the number in % without appending the unit.

Consider Cl.N[14CH2][C@H]1OB(O)c2c(OCCCO)cccc21 . Its measured dose excreted at 120 h is 7.3

----------
assay: Mean residence time in cynomolgus monkey at 35 mg/kg, iv administered as single infusion for 1 hr followed single oral dose of 35 mg/kg 4-MP; type: ADME, organism-based, Macaca fascicularis; conditions: in vivo
METRIC: MRT (h)
# output: bare number, implied unit h

Form field MRT, entry Cl.NC[C@H]1OB(O)c2c(OCCCO)cccc21 : 11

----------
experiment: Drug recovery in cynomolgus monkey liver S9 fraction at pH 7.4 treated with [14C]GSK2251052 at 500 uM after 3 hrs by liquid scintillation counting in presence of NAD+; type: ADME, subcellular, Macaca fascicularis; details: s9, pH 7.4, 3 h
METRIC: Drug recovery

Field Drug recovery (entry Cl.NC[C@H]1OB(O)c2c(OCCC(=O)O)cccc21 ) reads 7.7%

----------
assay: AUC (0 to infinity) in healthy human plasma at 1500 mg, iv infusion for 1 hr as single dose; format: ADME, organism-based; set-up: dose 1500 mg, route intravenous, time infinity
METRIC: AUC(0-inf) (ng·h/mL)
Value expressed in ng·h/mL; do not type the unit.

# AUC(0-inf) of Cl.NC[C@H]1OB(O)c2c(OCCCO)cccc21 = 72500

----------
assay: Drug recovery in healthy human urine at 1500 mg, iv infusion for 1 hr as single dose after 192 hrs; type: ADME, organism-based; settings: read-out: Drug recovery
METRIC: dose excreted at 192 h (%)
Entry rule: numbers only, all in %.

Kindly note the recorded dose excreted at 192 h for Cl.N[14CH2][C@H]1OB(O)c2c(OCCCO)cccc21 , which is 87.4

----------
assay: AUC (0 to infinity) in cynomolgus monkey at 35 mg/kg, iv administered as single infusion for 1 hr followed single oral dose of 35 mg/kg 4-MP; type: ADME, organism-based, Macaca fascicularis; conditions: plasma
METRIC: AUC(0-inf)
The reply should read as a number followed by its unit.

Lab note: Cl.NC[C@H]1OB(O)c2c(OCCCO)cccc21 gave AUC(0-inf) of 161 µg·h/mL

----------
assay: Total drug recovery in healthy human at 1500 mg, iv infusion for 1 hr as single dose after 96 hrs; format: ADME, organism-based; details: in vivo, read-out: Drug recovery
METRIC: dose excreted at 96 h (%)
Numbers only here, please. The scale is %.

dose excreted at 96 h recorded for this compound, Cl.N[14CH2][C@H]1OB(O)c2c(OCCCO)cccc21 , is 87.5

----------
test: Drug recovery in healthy human urine at 1500 mg, iv infusion for 1 hr as single dose after 96 hrs; type: ADME, organism-based; details: read-out: Drug recovery
METRIC: dose excreted at 96 h (%)
Output spec: scalar in %, unitless text.

// recorded dose excreted at 96 h for Cl.N[14CH2][C@H]1OB(O)c2c(OCCCO)cccc21 : 81.1

----------
assay: Cmax in cynomolgus monkey at 35 mg/kg, iv administered as single infusion for 1 hr; format: ADME, organism-based, Macaca fascicularis; design: dose 35 mg/kg, route intravenous; conditions: in vivo
METRIC: Cmax (ng/mL)
Give a bare numeral; the unit ng/mL is implied.

Cmax measured on Cl.NC[C@H]1OB(O)c2c(OCCCO)cccc21 = 46000

----------
experiment: Drug recovery in healthy human urine at 1500 mg, iv infusion for 1 hr as single dose after 336 hrs; assay type: ADME, organism-based; settings: read-out: Drug recovery
METRIC: dose excreted at 336 h (%)
Numeric answer only, unit % assumed.

Just so you know, measured dose excreted at 336 h for Cl.N[14CH2][C@H]1OB(O)c2c(OCCCO)cccc21 came out at 90.5

----------
experiment: Drug recovery in healthy human urine at 1500 mg, iv infusion for 1 hr as single dose after 24 hrs; format: ADME, organism-based; settings: read-out: Drug recovery
METRIC: dose excreted at 24 h (%)
Kindly answer with a numeric value in %, unit omitted.

GET /value?item= Cl.N[14CH2][C@H]1OB(O)c2c(OCCCO)cccc21 &field=dose excreted at 24 h returns 51.2

----------
experiment: Total drug recovery in healthy human at 1500 mg, iv infusion for 1 hr as single dose after 288 hrs; assay type: ADME, organism-based; settings: in vivo, read-out: Drug recovery
METRIC: dose excreted at 288 h (%)
Supply the numeric figure in %, leaving out any unit text.

The measured dose excreted at 288 h associated with Cl.N[14CH2][C@H]1OB(O)c2c(OCCCO)cccc21 reads 97.4

----------
test: Drug recovery in cynomolgus monkey liver microsomes at pH 7.4 treated with [14C]GSK2251052 at 500 uM after 3 hrs by liquid scintillation counting in presence of NAD+; assay type: ADME, Macaca fascicularis; conditions: pH 7.4, 3 h
METRIC: Drug recovery (%)
The response must be a number in % with no trailing unit.

According to the records, this compound Cl.NC[C@H]1OB(O)c2c(OCCC(=O)O)cccc21 displays Drug recovery of 2.5

----------
test: Tmax in cynomolgus monkey at 35 mg/kg, iv administered as single infusion for 1 hr followed single oral dose of 35 mg/kg 4-MP; assay type: ADME, organism-based, Macaca fascicularis; settings: in vivo
METRIC: Tmax (min)
Provide only the numeric value, understood in min.

The reported Tmax of the compound Cl.NC[C@H]1OB(O)c2c(OCCCO)cccc21 was 55.2

----------
assay: Drug recovery in healthy human feces at 1500 mg, iv infusion for 1 hr as single dose after 312 hrs; assay type: ADME, organism-based; details: read-out: Drug recovery
METRIC: dose excreted at 312 h (%)
Write the answer as a number in %, unit excluded.

// dose excreted at 312 h value for Cl.N[14CH2][C@H]1OB(O)c2c(OCCCO)cccc21 : 7.6

----------
assay: Total drug recovery in healthy human at 1500 mg, iv infusion for 1 hr as single dose after 24 hrs; type: ADME, organism-based; conditions: in vivo, read-out: Drug recovery
METRIC: dose excreted at 24 h (%)
Give the quantity in %, number only.

Item: Cl.N[14CH2][C@H]1OB(O)c2c(OCCCO)cccc21 | dose excreted at 24 h: 51.3

----------
experiment: Drug recovery in cynomolgus monkey liver S9 fraction at pH 8.4 treated with [14C]GSK2251052 at 500 uM after 3 hrs by liquid scintillation counting in presence of NAD+; format: ADME, subcellular, Macaca fascicularis; conditions: s9, pH 8.4, 3 h
METRIC: Drug recovery
Write the quantity with the unit trailing the number.

For record Cl.NC[C@H]1OB(O)c2c(OCCC(=O)O)cccc21 the listed Drug recovery is 6.7%

----------
test: Half life in cynomolgus monkey at 35 mg/kg, iv administered as single infusion for 1 hr; type: ADME, organism-based, Macaca fascicularis; parameters: dose 35 mg/kg, route intravenous; conditions: in vivo
METRIC: half-life (h)
Field format: number, assumed h, no unit text.

Per the record, Cl.NC[C@H]1OB(O)c2c(OCCCO)cccc21 has half-life of 5.4

----------
test: Half life in healthy human plasma at 1500 mg, iv infusion for 1 hr as single dose; format: ADME, organism-based
METRIC: half-life
# output: numeric value plus its unit

Short answer for Cl.NC[C@H]1OB(O)c2c(OCCCO)cccc21 : half-life was 11.6 h

----------
test: Total drug recovery in healthy human at 1500 mg, iv infusion for 1 hr as single dose after 144 hrs; type: ADME, organism-based; conditions: in vivo, read-out: Drug recovery
METRIC: dose excreted at 144 h

Looking up Cl.N[14CH2][C@H]1OB(O)c2c(OCCCO)cccc21 , I see its dose excreted at 144 h listed as 92.6%
